# Protocol Notes: in vivo
# Condition: CD-1, mouse, in vivo, sc, 25 mg/kg
Experimental Endpoint: Kp

Query block: Quick check: Kp of CC1=C[C@@H]2CN(C(=O)N2OS(=O)(=O)O)[C@@H]1C(N)=O [Durlobactam, durlobactam] ?
Result block: 0.63

====

# Protocol Notes: in vivo
# Condition: CD-1, mouse, in vivo, sc, 25 mg/kg
Experimental Endpoint: concentration at 3 h (ng/mL)
Give just the number in ng/mL; leave the unit off.

Query block: Quick check: concentration at 3 h of CC1=C[C@@H]2CN(C(=O)N2OS(=O)(=O)O)[C@@H]1C(N)=O [Durlobactam, durlobactam] ?
Result block: 330
